biological target: recombinant bovine eNOS (Bos taurus, UniProt P29473); conditions: read-out: Ki eNOS; Table 2; Ki calculated from the measured IC50 values; at least duplicate
# if measured Ki < 80 µM: yes (1)  # else: no (0)

Look over these answered cases.
- chemical_structure: "N=C(NCCC[C@H](N)CNCCc1cccc(N)c1)N[N+](=O)[O-]"
  classification: "yes (1)"
- chemical_structure: "N=C(NCCC[C@H](N)CNCCc1ccc(N)cc1)N[N+](=O)[O-]"
  classification: "no (0)"
- chemical_structure: "N=C(NCCC[C@H](N)CNc1cccc(CN)c1)N[N+](=O)[O-]"
  classification: "no (0)"
- chemical_structure: "N=C(NCCC[C@H](N)CNCc1cccnc1)N[N+](=O)[O-]"
  classification: "no (0)"
- chemical_structure: "N=C(NCCC[C@H](N)CNc1ccc(N)cc1)N[N+](=O)[O-]"
  classification: "no (0)"
- chemical_structure: "N=C(NCCC[C@H](N)CNc1ccc(CN)cc1)N[N+](=O)[O-]"
  classification: "no (0)"
- chemical_structure: "N=C(NCCC[C@H](N)CNc1ccccc1CN)N[N+](=O)[O-]"
  classification: "yes (1)"
- chemical_structure: "N=C(NCCC[C@H](N)CNCCc1cccnc1)N[N+](=O)[O-]"
  classification: "no (0)"

Take the molecule N=C(NCCC[C@H](N)CNCCc1ccccc1N)N[N+](=O)[O-] and say whether its Ki is less than 80 µM. yes (1)

----------
target: recombinant rat nNOS (Rattus norvegicus, UniProt P29476); construct: made in house; host or cells: E. coli; assay: NOS inhibition, hemoglobin capture assay, nNOS; format: biochemical; details: Table 2; ratio of Ki (iNOS) to Ki (nNOS)
measurement_kind: Selectivity iNOS/nNOS
Please give the numeric answer without any surrounding text.

// known answers, use as guide
- molecule: "N=C(NCCC[C@H](N)CNCCc1ccccc1N)N[N+](=O)[O-] [Compound 20]"
  Selectivity iNOS/nNOS: 135
- molecule: "N=C(NCCC[C@H](N)CNc1ccccc1CN)N[N+](=O)[O-] [Compound 23]"
  Selectivity iNOS/nNOS: 5.28

Now consider the entry below.
Find the measured Selectivity iNOS/nNOS: item N=C(NCCC[C@H](N)CNCc1cccnc1)N[N+](=O)[O-] [Compound 30] , target or system recombinant rat nNOS (Rattus norvegicus, UniProt P29476). 256

----------
Some compounds, each annotated with its measured Ki.
molecular target: recombinant murine iNOS (Mus musculus, UniProt P29477); construct: made in house; host or cells: E. coli; experiment: NOS inhibition, hemoglobin capture assay, iNOS; assay type: biochemical; conditions: Table 2; Ki calculated from the measured IC50 values; at least duplicate

Please review the entries below; each comes with its answer.
- chemical_structure: "N=C(NCCC[C@H](N)CNc1cccc(N)c1)N[N+](=O)[O-]"
  Ki: "279 µM"
- chemical_structure: "N=C(NCCC[C@H](N)CNc1ccc(CN)cc1)N[N+](=O)[O-]"
  Ki: "335 µM"
- chemical_structure: "N=C(NCCC[C@H](N)CNCCc1ccc(N)cc1)N[N+](=O)[O-]"
  Ki: "339 µM"
- chemical_structure: "N=C(NCCC[C@H](N)CNc1cccc(CN)c1)N[N+](=O)[O-]"
  Ki: "80 µM"

Which Ki is reported for this compound? N=C(NCCC[C@H](N)CNCCc1ccccn1)N[N+](=O)[O-] 72.6 µM
